system: Hepatitis C virus; assay: Antiviral activity at Hepatitis C virus genotype 1b infected in human HuH7 cells assessed as inhibition of viral replication at 10 uM after 3 days by renilla luciferase reporter gene assay; format: functional, Hepacivirus hominis; details: Huh-7, 72 h
We begin with a simple list: items and their reported inhibition at 10 µM.
readoutLabel: inhibition at 10 µM (%)

O=C(O)c1c[nH]c2ccc(-c3ccco3)cc2c1=O : 0
O=C(O)c1cn(CCO)c2ccc(-c3cc4ccccc4s3)cc2c1=O : 58
O=C(O)c1cn(CCO)c2ccc(-c3cccs3)cc2c1=O : 40
O=C(O)c1cn(CCO)c2ccc(-c3ccoc3)cc2c1=O : 0
O=C(O)c1c[nH]c2ccc(-c3cccs3)cc2c1=O : 0
O=C(O)c1cn(CCO)c2cc(-c3ccco3)ccc2c1=O : 15
